molecular target: Epidermal growth factor receptor (Homo sapiens, UniProt P00533, C797S/L858R/T790M); assay: Inhibition of EGFR L858R/T790M/C797S mutant (unknown origin) by mobility shift assay
Sequence (P00533 25-1210 T790M/C797S/L858R limits assumed): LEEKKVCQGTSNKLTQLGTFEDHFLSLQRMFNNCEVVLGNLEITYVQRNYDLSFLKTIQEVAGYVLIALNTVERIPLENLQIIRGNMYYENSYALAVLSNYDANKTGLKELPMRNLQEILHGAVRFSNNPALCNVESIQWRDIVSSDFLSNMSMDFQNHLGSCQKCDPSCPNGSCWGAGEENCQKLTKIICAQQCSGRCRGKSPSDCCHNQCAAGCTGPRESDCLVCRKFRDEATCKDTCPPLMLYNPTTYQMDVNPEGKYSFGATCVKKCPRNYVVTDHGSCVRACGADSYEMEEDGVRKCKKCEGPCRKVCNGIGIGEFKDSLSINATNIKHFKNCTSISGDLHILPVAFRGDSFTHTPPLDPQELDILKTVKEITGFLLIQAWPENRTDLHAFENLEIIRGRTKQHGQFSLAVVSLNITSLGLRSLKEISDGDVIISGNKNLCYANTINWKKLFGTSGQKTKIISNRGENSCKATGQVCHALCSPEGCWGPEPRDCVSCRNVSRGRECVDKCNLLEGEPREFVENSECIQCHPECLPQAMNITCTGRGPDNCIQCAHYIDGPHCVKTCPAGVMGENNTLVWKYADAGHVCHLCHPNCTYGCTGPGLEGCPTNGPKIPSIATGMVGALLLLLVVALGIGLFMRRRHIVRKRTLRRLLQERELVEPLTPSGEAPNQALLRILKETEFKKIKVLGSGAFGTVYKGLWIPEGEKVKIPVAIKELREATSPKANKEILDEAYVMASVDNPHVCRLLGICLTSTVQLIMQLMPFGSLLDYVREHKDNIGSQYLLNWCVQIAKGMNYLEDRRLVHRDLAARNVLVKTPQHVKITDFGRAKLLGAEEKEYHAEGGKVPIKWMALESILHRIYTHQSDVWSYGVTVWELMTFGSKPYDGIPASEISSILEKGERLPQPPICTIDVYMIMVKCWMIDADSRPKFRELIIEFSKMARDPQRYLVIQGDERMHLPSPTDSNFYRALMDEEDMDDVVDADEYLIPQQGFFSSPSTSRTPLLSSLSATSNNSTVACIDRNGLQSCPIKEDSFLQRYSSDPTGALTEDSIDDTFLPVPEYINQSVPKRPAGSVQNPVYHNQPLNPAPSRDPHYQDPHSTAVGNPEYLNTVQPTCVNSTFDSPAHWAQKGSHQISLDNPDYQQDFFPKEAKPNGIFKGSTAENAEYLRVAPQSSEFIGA
pIC50: −log10 of the molar value.
ATTRIBUTE MEASURED: pIC50

Answered cases to consult:
COMPOUND	ASSAYED TARGET	TEST VALUE
COc1cc(N(C)CCN(C)C)c(NC(=O)c2nccn2C)cc1Nc1nc(-c2cn(C)c3ccccc23)c2cccnc2n1	Epidermal growth factor receptor (Homo sapiens, UniProt P00533, C797S/L858R/T790M)	< 6.30
COc1cc(N(C)CCN(C)C)c(NC(=O)c2ccncn2)cc1Nc1nccc(-c2cn(CCCO)c3ccccc23)n1	Epidermal growth factor receptor (Homo sapiens, UniProt P00533, C797S/L858R/T790M)	6.79
COc1cc(N(C)CCN(C)C)c(NC(=O)c2ccnc(O)c2)cc1Nc1nccc(-c2cn(C)c3ccccc23)n1	Epidermal growth factor receptor (Homo sapiens, UniProt P00533, C797S/L858R/T790M)	< 6.30
COc1cc(N(C)CCN(C)C)c(NC(=O)c2ccnc(Cl)c2)cc1Nc1nccc(-c2cn(C)c3ccccc23)n1	Epidermal growth factor receptor (Homo sapiens, UniProt P00533, C797S/L858R/T790M)	6.38
COc1cc(N(C)CCN(C)C)c(NC(=O)c2ncccn2)cc1Nc1nccc(-c2cn(C)c3ccccc23)n1	Epidermal growth factor receptor (Homo sapiens, UniProt P00533, C797S/L858R/T790M)	< 6.30

Could you now look at the following molecule, please?
Find the recorded pIC50 belonging to COc1cc(N(C)CCN(C)C)c(NC(=O)c2ccncc2OC)cc1Nc1nccc(-c2cn(C)c3ccccc23)n1 and report it. < 6.30
